// provenance: ChEMBL document CHEMBL1137367

test system: SK-HEP1; test: Growth inhibition of SK-HEP-1 cells by crystal violet assay after 24 hrs; assay type: functional, cell-based; conditions: Homo sapiens, SK-HEP1, 24 h
Value kind: IC50 (nM)

{"Smi": "COc1cccc2c1C(=O)c1c(O)c3c(c(O)c1C2=O)C[C@@](O)(C(=O)CO)C[C@@H]3O[C@H]1C[C@H](N)[C@H](O)[C@H](C)O1", "IC50, nM": 50.1}
{"Smi": "CCCCCOC(=O)N1CO[C@@H]2[C@H](C)O[C@@H](O[C@H]3C[C@](O)(C(=O)CO)Cc4c(O)c5c(c(O)c43)C(=O)c3c(OC)cccc3C5=O)C[C@@H]21", "IC50, nM": 200}
{"Smi": "CCCCOC(=O)N1CO[C@@H]2[C@H](C)O[C@@H](O[C@H]3C[C@](O)(C(=O)CO)Cc4c(O)c5c(c(O)c43)C(=O)c3c(OC)cccc3C5=O)C[C@@H]21", "IC50, nM": 398}

(P) CCCCCOC(=O)Nc1ccc(COC(=O)N2CO[C@@H]3[C@H](C)O[C@@H](O[C@H]4C[C@](O)(C(=O)CO)Cc5c(O)c6c(c(O)c54)C(=O)c4c(OC)cccc4C6=O)C[C@@H]32)cc1
(Q) CCCCOC(=O)Nc1ccc(COC(=O)N2CO[C@@H]3[C@H](C)O[C@@H](O[C@H]4C[C@](O)(C(=O)CO)Cc5c(O)c6c(c(O)c54)C(=O)c4c(OC)cccc4C6=O)C[C@@H]32)cc1
Which value of IC50 is smaller, the one for P or the one for Q ? Return value: the label identifying the chosen record.
P
